assay target: E. coli RNase P holoenzyme (M1 P RNA + rnpA protein)
Sequence: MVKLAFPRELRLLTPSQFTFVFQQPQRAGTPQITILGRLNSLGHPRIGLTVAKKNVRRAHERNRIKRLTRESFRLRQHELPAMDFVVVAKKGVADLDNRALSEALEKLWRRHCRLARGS
method description: relative kcat/Km (krel) vs genomic leader AAAGAU (relative (reference leader = 1)); higher = faster RNase P cleavage
conditions: fraction of substrate reacted: ~9-10% (9.79% repeat 1, 9.1% repeat 2)
The full ranking holds about 4,100 sequences; the median of “relative kcat/Km (krel) vs genomic leader AAAGAU” is about 1.7, and the highest 2% start at about 6.5. The entries come from a sample that favours the highest values as a whole.
parameter: relative kcat/Km
Number only, no unit.

Consider the reported relative kcat/Km for these sequences:
GACATT
3.42
AGTCAA
2.58
CTCGAT
1.97
AGTCAG
2.12
ACTCAC
2.6

relative kcat/Km lookup needed for CTAGAC , thanks.
1.95

relative kcat/Km lookup needed for TGTCAC , thanks.
3.25

relative kcat/Km lookup needed for GCTAGG , thanks.
1.3

relative kcat/Km lookup needed for CCGTGC , thanks.
1.25

relative kcat/Km lookup needed for GGCCTC , thanks.
1.28

relative kcat/Km lookup needed for GGTCAC , thanks.
2.53

relative kcat/Km lookup needed for TAAGGC , thanks.
1.46

relative kcat/Km lookup needed for CTCGAG , thanks.
1.8

relative kcat/Km lookup needed for GAGAGT , thanks.
0.122

relative kcat/Km lookup needed for CGCGGA , thanks.
1.5

relative kcat/Km lookup needed for TGTCAT , thanks.
3.5

relative kcat/Km lookup needed for CATCAA , thanks.
2.69

relative kcat/Km lookup needed for GATCGA , thanks.
2.37

relative kcat/Km lookup needed for AGATGT , thanks.
0.906

relative kcat/Km lookup needed for GCTTAA , thanks.
1.72

relative kcat/Km lookup needed for AGTCAT , thanks.
3.31

relative kcat/Km lookup needed for TACATC , thanks.
3.03

relative kcat/Km lookup needed for TGTCAA , thanks.
3.03
